- TEST_SYSTEM: cdk2/cyclinA (Homo sapiens, UniProt P24941)
- ASSAY_METHOD_TEXT: Cyclin-Dependent Kinase Assay cdk2/cyclinA
- ASSAY_SETUP: cdk2/A IC50, Table 1
QUANTITY: IC50 (nM)

# COMPOUND, QUANTITY, MEASURED_RESULT
records = [
    ("O=c1ccc2cnc(Nc3ccc(N4CCCCC4)cc3)nc2n1[C@H]1C[C@H]2CC[C@@H]1C2 (relative stereo)", "IC50", 996),
    ("O=c1ccc2cnc(Nc3ccc(N4CCCCC4)cc3)nc2n1[C@@H]1C[C@H]2CC[C@@H]1C2 (relative stereo)", "IC50", 195),
]

A: O=c1ccc2cnc(Nc3ccc(N4CCCC(CCCO)C4)cc3)nc2n1C1CC2CCC1C2 (stereo not drawn)
B: CC1CC(C)CN(c2ccc(Nc3ncc4ccc(=O)n(C5CCCCC5)c4n3)cc2)C1 (stereo not drawn)
[ask] Please tell me which of the two, A or B , has the higher reported IC50 value. I would appreciate it if you answered with the label of your choice.
[reply] B

A: O=c1ccc2cnc(Nc3ccc(N4CCC(CCN5CCOCC5)CC4)cc3)nc2n1C1CCCCC1
B: O=c1ccc2cnc(Nc3ccc(-n4cccn4)cc3)nc2n1C1CCCCC1
[ask] Please tell me which of the two, A or B , has the higher reported IC50 value. I would appreciate it if you answered with the label of your choice.
[reply] A

Numbers sourced from patent US20040224958A1.
